# target-or-system: bovine trypsin (Bos taurus)
# Sequence (P00760 24-246): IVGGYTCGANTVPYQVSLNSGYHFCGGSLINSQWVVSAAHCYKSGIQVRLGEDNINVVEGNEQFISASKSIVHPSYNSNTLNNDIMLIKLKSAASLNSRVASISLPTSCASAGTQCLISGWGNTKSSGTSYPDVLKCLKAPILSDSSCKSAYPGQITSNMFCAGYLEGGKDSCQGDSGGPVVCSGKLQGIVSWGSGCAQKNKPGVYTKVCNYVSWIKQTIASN
# experiment: Trypsin inhibitory activity of peptides (BApNA hydrolysis, OD405; IC50, Ki, residual activity)
# Assay type: biochemical
# assay-context: peptide 97.56 μM
Bridge positions count the residues as written; N and C are the ends. Peptide text beside a SMILES is read from it.
observed-property: Residual trypsin activity (%)
Please respond with the number in % and leave the unit unwritten.

Some compounds with recorded Residual trypsin activity:
1) CC[C@H](C)[C@@H]1NC(=O)[C@@H]2CCCN2C(=O)[C@@H]2CCCN2C(=O)[C@H]([C@@H](C)CC)NC(=O)[C@H](CO)NC(=O)[C@H](CCCCN)NC(=O)[C@H]([C@@H](C)O)NC(=O)[C@H](Cc2ccc(O)cc2)NC(=O)[C@H](CCCNC(=N)N)NC(=O)CNC(=O)[C@@H](N)CSSC[C@@H](C(=O)N[C@@H](Cc2ccccc2)C(=O)O)NC1=O [BT53] (H-CGRYTKSIPPICF-OH; disulfide 1-12; C-terminus assumed)	0.0
2) CC[C@H](C)[C@@H]1NC(=O)[C@@H]2CCCN2C(=O)[C@@H]2CCCN2C(=O)[C@H]([C@@H](C)CC)NC(=O)[C@H](C)NC(=O)[C@H](CCCCN)NC(=O)[C@H]([C@@H](C)O)NC(=O)[C@H](C)NC(=O)[C@H](CCCNC(=N)N)NC(=O)CNC(=O)[C@@H](N)CSSC[C@@H](C(=O)N[C@@H](Cc2ccccc2)C(=O)O)NC1=O [BT27] (H-CGRATKAIPPICF-OH; disulfide 1-12; C-terminus assumed)	0.1
3) CC[C@H](C)[C@@H]1NC(=O)[C@@H]2CCCN2C(=O)[C@@H]2CCCN2C(=O)[C@H]([C@@H](C)CC)NC(=O)[C@H](CO)NC(=O)[C@H](CCCCN)NC(=O)[C@H]([C@@H](C)O)NC(=O)[C@H](CO)NC(=O)[C@H](CCCNC(=N)N)NC(=O)CNC(=O)[C@@H](N)CSSC[C@@H](C(=O)N[C@@H](Cc2ccccc2)C(=O)O)NC1=O [BT47] (H-CGRSTKSIPPICF-OH; disulfide 1-12; C-terminus assumed)	0.1

The reported bovine trypsin (Bos taurus) Residual trypsin activity of CC[C@H](C)[C@@H]1NC(=O)[C@@H]2CCCN2C(=O)[C@@H]2CCCN2C(=O)[C@H]([C@@H](C)CC)NC(=O)[C@H](CO)NC(=O)[C@H](CCCCN)NC(=O)[C@H](C)NC(=O)[C@H](C)NC(=O)[C@H](CCCNC(=N)N)NC(=O)CNC(=O)[C@@H](N)CSSC[C@@H](C(=O)N[C@@H](Cc2ccccc2)C(=O)O)NC1=O [BT26] (H-CGRAAKSIPPICF-OH; disulfide 1-12; N-terminus and C-terminus assumed) is 0.1

The reported bovine trypsin (Bos taurus) Residual trypsin activity of CC[C@H](C)[C@@H]1NC(=O)[C@@H]2CCCN2C(=O)[C@@H]2CCCN2C(=O)[C@H]([C@@H](C)CC)NC(=O)[C@H](CO)NC(=O)[C@H](CCCNC(=N)N)NC(=O)[C@H]([C@@H](C)O)NC(=O)[C@H](C)NC(=O)[C@H](CCCNC(=N)N)NC(=O)CNC(=O)[C@@H](N)CSSC[C@@H](C(=O)N[C@@H](Cc2ccccc2)C(=O)O)NC1=O [BT17] (H-CGRATRSIPPICF-OH; disulfide 1-12; C-terminus assumed) is 0.1
